Emax at 30 µM values for the compounds below.
- study.target: Human M4 (Homo sapiens, UniProt P08173)
- Construct: expressed in transfected cells
- Sequence (P08173 whole entry): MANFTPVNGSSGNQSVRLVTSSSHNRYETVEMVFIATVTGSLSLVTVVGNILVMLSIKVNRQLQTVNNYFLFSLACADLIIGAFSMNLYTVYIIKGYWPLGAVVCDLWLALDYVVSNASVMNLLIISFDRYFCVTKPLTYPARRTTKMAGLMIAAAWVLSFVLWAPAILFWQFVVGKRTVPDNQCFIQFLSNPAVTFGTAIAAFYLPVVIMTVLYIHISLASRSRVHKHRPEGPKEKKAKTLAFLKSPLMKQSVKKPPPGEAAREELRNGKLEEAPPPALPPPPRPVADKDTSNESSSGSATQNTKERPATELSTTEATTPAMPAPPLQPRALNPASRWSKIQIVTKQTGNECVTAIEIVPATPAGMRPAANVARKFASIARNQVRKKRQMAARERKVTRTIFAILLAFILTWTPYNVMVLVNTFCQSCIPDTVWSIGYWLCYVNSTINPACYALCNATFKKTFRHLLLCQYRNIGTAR
- method.notes: mAChR M4 cell-based functional assay (calcium flux, potentiation of EC20 acetylcholine response), hM4-Gqi5 CHO-K1 cells
- protocol.conditions: CHO-K1; % ACh maximum at 30 μM; human M4; read-out: Emax
Express your answer in %, writing the number without its unit.

// Emax at 30 µM lookup, compound = Cc1c(N2CCc3ncc(-c4cnn(C)c4)cc3C2)nn2cnnc2c1C , result: 101

// Emax at 30 µM lookup, compound = Cc1c(N2CCc3ncc(C(=O)N4CC(C)(C)C4)cc3C2)nn2cnnc2c1C , result: 77

// Emax at 30 µM lookup, compound = Cc1c(N2CCc3ncc(Nc4cc(F)cc(F)c4F)cc3C2)nn2c(C)nnc2c1C , result: 92

// Emax at 30 µM lookup, compound = CSc1ccccc1Nc1cnc2c(c1)CN(c1nn3cnnc3c(C)c1C)CC2 , result: 85

// Emax at 30 µM lookup, compound = Cc1nn(C)c(C)c1-c1cnc2c(c1)CN(c1nn3c(C(F)(F)F)nnc3c(C)c1C)CC2 , result: 93

// Emax at 30 µM lookup, compound = Cc1c(N2CCc3ncc(C(=O)NCCN4CCCC4)cc3C2)nn2cnnc2c1C , result: 85

// Emax at 30 µM lookup, compound = Cc1nn(C)cc1-c1cnc2c(c1)CN(c1nn3c(C(F)(F)F)nnc3c(C)c1C)CC2 , result: 100

// Emax at 30 µM lookup, compound = [2H]c1nnc2c(C)c(C)c(N3CCc4ncc(-c5cncs5)cc4C3)nn12 , result: 92

// Emax at 30 µM lookup, compound = Cc1c(N2CCc3ncc(Nc4ccc(Cl)cc4F)cc3C2)nn2cnnc2c1C , result: 96

// Emax at 30 µM lookup, compound = Cc1c(N2CCc3ncc(C(=O)N4CCN(C5CC5)CC4)cc3C2)nn2cnnc2c1C , result: 51

Continuing:
// Emax at 30 µM lookup, compound = Cc1c(N2CCc3ncc(Nc4ccccc4F)cc3C2)nn2c(C)nnc2c1C , result: 99

// Emax at 30 µM lookup, compound = Cc1cc2nncn2nc1N1CCc2ncc(-c3cnn(C)c3)cc2C1 , result: 100

// Emax at 30 µM lookup, compound = Cc1c(N2CCc3ncc(-c4cccnc4)cc3C2)nn2cnnc2c1C , result: 92

// Emax at 30 µM lookup, compound = Cc1c(N2CCc3ncc(Nc4ncc(F)cc4F)cc3C2)nn2cnnc2c1C , result: 62

// Emax at 30 µM lookup, compound = [2H]c1nnc2c(C)c(C)c(N3CCc4ncc(Nc5ccccc5F)cc4C3)nn12 , result: 102

====

- study.target: Human M4 (Homo sapiens)
- Construct: expressed in transfected cells
- method.notes: mAChR M4 cell-based functional assay (calcium flux, potentiation of EC20 acetylcholine response), hM4-Gqi5 CHO-K1 cells
- protocol.conditions: Table 3; potentiation of EC20 acetylcholine response, calcium flux, CHO-K1 cells; read-out: Human M4 EC50
pEC50: −log10 of the molar value.
Decide by pEC50: equal to or exceeding 6 means rule met, less means rule not met.

Solved cases below.
Check if pEC50 >= 6 (inclusive). Item: Cc1c(N2CCc3ncc(C4CC4)cc3C2)nn2c(C(F)(F)F)nnc2c1C
rule met

Check if pEC50 >= 6 (inclusive). Item: Cc1c(N2CCc3ncc(N4CCOc5ccccc54)cc3C2)nn2c(C(F)(F)F)nnc2c1C
rule met

Check if pEC50 >= 6 (inclusive). Item: Cc1c(N2CCc3ncc(C(F)F)cc3C2)nn2cnnc2c1C
rule met

Check if pEC50 >= 6 (inclusive). Item: Cc1cc2nccn2nc1N1CCc2ncc(C(F)(F)F)cc2C1
rule met

Check if pEC50 >= 6 (inclusive). Item: Cc1cc2nncn2nc1N1CCc2ncc(Oc3ccc(F)cc3F)cc2C1
rule met

Continuing:
Check if pEC50 >= 6 (inclusive). Item: Cc1c(N2CCc3ncc(-c4cnn(C)c4)cc3C2)nn2c(C(F)(F)F)nnc2c1C
rule met

Check if pEC50 >= 6 (inclusive). Item: Cc1c(N2CCc3ncc(-n4cccn4)cc3C2)nn2c(C(F)(F)F)nnc2c1C
rule met

Check if pEC50 >= 6 (inclusive). Item: CC(=O)Nc1cnc2c(c1)CN(c1nn3cnnc3c(C)c1C)CC2
rule not met

Check if pEC50 >= 6 (inclusive). Item: Cc1cc2nncn2nc1N1CCc2ncc(C(C)(C)O)cc2C1
rule not met

Check if pEC50 >= 6 (inclusive). Item: Cc1c(N2CCc3ncc(N4CCOc5ccc(F)cc54)cc3C2)nn2c(C(F)(F)F)nnc2c1C
rule met

Check if pEC50 >= 6 (inclusive). Item: Cc1c(N2CCc3ncc(-n4cccc4)cc3C2)nn2c(C(F)(F)F)nnc2c1C
rule met

Hey, just so you know, these numbers are from patent US20250002507A1.
